- tgt: Aminopeptidase N (Plasmodium falciparum (isolate 3D7)) (UniProt O96935)
- Sequence (O96935 whole entry, looked up): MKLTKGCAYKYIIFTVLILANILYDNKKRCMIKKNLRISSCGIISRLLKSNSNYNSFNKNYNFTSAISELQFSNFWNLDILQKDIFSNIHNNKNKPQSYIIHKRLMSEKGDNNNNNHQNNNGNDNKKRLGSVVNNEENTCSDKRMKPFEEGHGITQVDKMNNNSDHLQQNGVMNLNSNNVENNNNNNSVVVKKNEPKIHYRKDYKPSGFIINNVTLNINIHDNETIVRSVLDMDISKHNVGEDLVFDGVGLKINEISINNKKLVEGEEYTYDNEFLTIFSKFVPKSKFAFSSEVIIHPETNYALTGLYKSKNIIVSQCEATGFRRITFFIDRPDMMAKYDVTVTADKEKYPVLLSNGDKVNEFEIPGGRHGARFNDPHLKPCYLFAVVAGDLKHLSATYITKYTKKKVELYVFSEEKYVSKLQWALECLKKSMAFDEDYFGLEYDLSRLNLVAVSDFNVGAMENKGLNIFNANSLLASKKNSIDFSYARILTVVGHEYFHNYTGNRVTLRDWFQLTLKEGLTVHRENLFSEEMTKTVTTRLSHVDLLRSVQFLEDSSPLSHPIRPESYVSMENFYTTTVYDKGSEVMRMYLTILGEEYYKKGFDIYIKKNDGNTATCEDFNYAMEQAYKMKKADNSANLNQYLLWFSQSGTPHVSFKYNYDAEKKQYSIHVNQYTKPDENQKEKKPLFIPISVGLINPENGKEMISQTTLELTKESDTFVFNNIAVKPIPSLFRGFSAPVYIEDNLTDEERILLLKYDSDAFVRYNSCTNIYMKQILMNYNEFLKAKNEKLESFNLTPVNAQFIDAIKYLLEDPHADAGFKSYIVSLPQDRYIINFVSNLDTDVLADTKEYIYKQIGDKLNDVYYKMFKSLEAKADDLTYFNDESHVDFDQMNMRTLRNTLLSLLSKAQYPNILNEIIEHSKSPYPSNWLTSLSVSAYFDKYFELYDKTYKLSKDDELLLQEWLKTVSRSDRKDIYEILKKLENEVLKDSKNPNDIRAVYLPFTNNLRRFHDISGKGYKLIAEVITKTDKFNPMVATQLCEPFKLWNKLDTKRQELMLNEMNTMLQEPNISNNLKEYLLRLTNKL
- assay-text: malaria alanyl aminopeptidase activity blockers – biochemical, fluorogenic H-Leu-NHMec substrate, 1536-well (AID 1445)
- measurement-parameters: recombinant M1AAP, H-Leu-NHMec fluorogenic kinetic assay; at 30 µM
Screen size: about 220,000 compounds; about 910 (0.41%) were called active.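 Rule for the calls: active = primary inhibition above the hit cutoff, then over 50% inhibition at one or more dose response concentrations (cut at about 23% in these data, passing the limit was not always enough); inconclusive = conflicting primary data, or primary hits not chosen for dose response; inactive = low primary inhibition, or under 50% at every dose.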 What follows is part of a selection rich in actives, with near analogues and random picks from the rest. Entries with a potency or affinity are not part of this list.
Thanks in advance; please answer with one of these: YES for active, NO for inactive

Field: example entries. Status: answers known.
{"compound": "O=C(CCn1nnc2ccccc2c1=O)N[C@@H](Cc1c[nH]c2ccccc12)C(=O)O", "tgt": "Aminopeptidase N (Plasmodium falciparum (isolate 3D7)) (UniProt O96935)", "answer-label": "NO"}
{"compound": "COc1ccc(S(=O)(=O)NCc2cc(-c3ccccc3Cl)no2)cc1", "tgt": "Aminopeptidase N (Plasmodium falciparum (isolate 3D7)) (UniProt O96935)", "answer-label": "NO"}
{"compound": "CCOC(=O)CSc1nnc(Cc2ccccc2)n1CC1CCCO1 (stereo not drawn)", "tgt": "Aminopeptidase N (Plasmodium falciparum (isolate 3D7)) (UniProt O96935)", "answer-label": "NO"}
{"compound": "COc1ccc(N=Cc2cc(Cc3ccccc3Cl)cc([N+](=O)[O-])c2O)cc1OC", "tgt": "Aminopeptidase N (Plasmodium falciparum (isolate 3D7)) (UniProt O96935)", "answer-label": "NO"}
{"compound": "CCOC(=O)CC1C(=O)NCCN1S(=O)(=O)c1ccc(OC)cc1 (stereo not drawn)", "tgt": "Aminopeptidase N (Plasmodium falciparum (isolate 3D7)) (UniProt O96935)", "answer-label": "NO"}

Just curious, what result did Cc1ccc(CSC2=Nc3ccccc3C3=NC(CC(=O)NCc4ccco4)C(=O)N23)cc1 (stereo not drawn) get here? YES

Which result was noted for this compound in the test: COc1ccc(CN(C)C(=S)Nc2ccc(OC(F)F)cc2)cc1 NO

For CS(=O)(=O)C1=NSC2=NC(=O)/C(=C\c3cccn3-c3ccccc3Cl)C(=N)N21 , which call appears in the assay record? NO

Give the logged outcome of this assay for the following compound: CCC(=O)N(C)CCc1cc2c(c(OC)c1/C=N/NC(=O)c1ccccc1O)OCO2 NO

What did this assay record as the result for N#Cc1sc2nc(-c3cccs3)cc(-c3ccccc3)c2c1N ? NO

Which result was noted for this compound in the test: CC(=O)c1ccc(Sc2ccccc2N)c([N+](=O)[O-])c1 NO

For COc1ccc(S(=O)(=O)N2CCOCC2)cc1NC(=O)CO/N=C/c1ccccc1OC(F)F , what call appears in the results of this test? NO

Entry source: PubChem BioAssay AID1445
